assay: Cytotoxicity (XTT assay); type: cell-based; details: half toxic concentration, incubation 4 days at 37° C.
endpoint: CC50 at 4 days (µM)

>>> result("Brc1ccc(C(c2cccc(CN3CCCNCCNCCCNCC3)c2)c2cccc(CN3CCCNCCNCCCNCC3)c2)cc1 [Example 3, dihydrate]")
161
>>> result("Cc1ccc(C(c2cccc(CN3CCCNCCNCCCNCC3)c2)c2cccc(CN3CCCNCCNCCCNCC3)c2)cc1 [Example 2, dihydrate]")
285
>>> result("Clc1cccc(C(c2cccc(CN3CCCNCc4cccc(n4)CNCCC3)c2)c2cccc(CN3CCCNCc4cccc(n4)CNCCC3)c2)c1 [Example 23, dihydrate]")
15.3
>>> result("Cc1ccc(C(c2ccc(CN3CCCNCCNCCCNCC3)cc2)c2ccc(CN3CCCNCCNCCCNCC3)cc2)cc1 [Example 8, dihydrate]")
130

* * *

system: HIV-1; test: Anti-HIV activity: inhibition of cell pathological effect (CPE); format: cell-based; conditions: Human immunodeficiency virus 1; inhibition of cell pathological effect of HIV-1
endpoint: IC50 (µM)

>>> result("Cc1ccc(C(c2cccc(CN3CCCNCCNCCCNCC3)c2)c2cccc(CN3CCCNCCNCCCNCC3)c2)cc1 [Example 2, dihydrate]")
0.48
>>> result("Brc1ccc(C(c2ccc(CN3CCCNCCNCCCNCC3)cc2)c2ccc(CN3CCCNCCNCCCNCC3)cc2)cc1 [Example 9, dihydrate]")
1.75
>>> result("c1ccc(C(c2cccc(CN3CCCNCCNCCCNCC3)c2)c2cccc(CN3CCCNCCNCCCNCC3)c2)nc1 [Example 6, dihydrate]")
0.55
>>> result("Fc1ccc(C(c2ccc(CN3CCCNCCNCCCNCC3)cc2)c2ccc(CN3CCCNCCNCCCNCC3)cc2)cc1 [Example 10, dihydrate]")
1.22
>>> result("Clc1cccc(C(c2cccc(CN3CCCNCCNCCCNCC3)c2)c2cccc(CN3CCCNCCNCCCNCC3)c2)c1 [Example 5, dihydrate]")
0.23
>>> result("c1ccc(C(c2cccc(CN3CCCNCc4cccc(c4)CNCCC3)c2)c2cccc(CN3CCCNCc4cccc(c4)CNCCC3)c2)cc1 [Example 13, dihydrate]")
1.56
>>> result("Clc1cccc(C(c2ccc(CN3CCCNCCNCCCNCC3)cc2)c2ccc(CN3CCCNCCNCCCNCC3)cc2)c1 [Example 11, dihydrate]")
1.48
>>> result("Fc1ccc(C(c2cccc(CN3CCCNCCNCCCNCC3)c2)c2cccc(CN3CCCNCCNCCCNCC3)c2)cc1 [Example 4, dihydrate]")
0.42
>>> result("Cc1ccc(C(c2ccc(CN3CCCNCCNCCCNCC3)cc2)c2ccc(CN3CCCNCCNCCCNCC3)cc2)cc1 [Example 8, dihydrate]")
2.05
>>> result("c1ccc(C(c2ccc(CN3CCCNCc4cccc(c4)CNCCC3)cc2)c2ccc(CN3CCCNCc4cccc(c4)CNCCC3)cc2)cc1 [Example 25, dihydrate]")
1.87
>>> result("Brc1ccc(C(c2ccc(CN3CCCNCc4cccc(n4)CNCCC3)cc2)c2ccc(CN3CCCNCc4cccc(n4)CNCCC3)cc2)cc1 [Example 32, dihydrate]")
0.8
>>> result("Brc1ccc(C(c2cccc(CN3CCCNCCNCCCNCC3)c2)c2cccc(CN3CCCNCCNCCCNCC3)c2)cc1 [Example 3, dihydrate]")
0.08
>>> result("Clc1cccc(C(c2cccc(CN3CCCNCc4cccc(n4)CNCCC3)c2)c2cccc(CN3CCCNCc4cccc(n4)CNCCC3)c2)c1 [Example 23, dihydrate]")
1.18
